- TEST_TARGET: AppA (Cereibacter sphaeroides)
- Sequence (Q53119 1-450): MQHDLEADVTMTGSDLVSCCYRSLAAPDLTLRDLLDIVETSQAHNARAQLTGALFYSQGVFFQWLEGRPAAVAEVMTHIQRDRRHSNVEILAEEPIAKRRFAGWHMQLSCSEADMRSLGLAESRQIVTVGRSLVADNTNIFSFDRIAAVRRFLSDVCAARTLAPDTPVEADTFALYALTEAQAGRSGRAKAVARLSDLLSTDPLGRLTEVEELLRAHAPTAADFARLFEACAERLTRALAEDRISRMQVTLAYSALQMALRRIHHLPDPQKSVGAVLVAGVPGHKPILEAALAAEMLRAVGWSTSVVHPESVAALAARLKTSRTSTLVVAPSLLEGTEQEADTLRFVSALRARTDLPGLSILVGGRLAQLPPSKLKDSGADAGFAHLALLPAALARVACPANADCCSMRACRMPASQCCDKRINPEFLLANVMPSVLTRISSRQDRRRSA
PARAMETER_MEASURED: Kd (µM)
Give bare numbers, in µM.

Query string: Item C=CC1=C(C)C2=Cc3c(C=C)c(C)c4[n]3[Fe+][n]3c(c(C)c(CCC(=O)O)c3=CC3=NC(=C4)C(C)=C3CCC(=O)O)=CC1=N2 has what recorded Kd?
Result string: 1.25
